experiment: Plasma clearance in Swiss mouse plasma at 10 mg/kg, iv; format: ADME, organism-based; parameters: dose 10 mg/kg, route intravenous
experimental_readout: clearance

Problem: Consider the molecule Cc1cc(C(=O)O)n[nH]1 and give its measured clearance.
Result: 10 mL/min/kg

----------
assay: Ratio of drug level (0 to last) in brain to plasma in Wistar rat at 10 mg/kg, po; format: ADME, organism-based; parameters: dose 10 mg/kg, route oral; settings: brain and plasma, read-out: BPR
experimental_readout: Kp
// return a plain number; no unit text

Here's what some known entries look like.
chem_smiles=Oc1noc2cc(Cl)ccc12 experimental_readout=Kp value_observed=0.04
chem_smiles=O=C(O)c1cc2sccc2[nH]1 experimental_readout=Kp value_observed=0.05

Let's switch to this compound now.
Problem: Reported Kp for O=C(O)c1cc2occc2[nH]1 : what is it?
Result: 0.08
